Value source: patent US9102591B2

Listed below: IC50 values for each entry.
Target: P2X7 receptor (Homo sapiens (Human), UniProt Q99572)
Sequence (Q99572 whole entry): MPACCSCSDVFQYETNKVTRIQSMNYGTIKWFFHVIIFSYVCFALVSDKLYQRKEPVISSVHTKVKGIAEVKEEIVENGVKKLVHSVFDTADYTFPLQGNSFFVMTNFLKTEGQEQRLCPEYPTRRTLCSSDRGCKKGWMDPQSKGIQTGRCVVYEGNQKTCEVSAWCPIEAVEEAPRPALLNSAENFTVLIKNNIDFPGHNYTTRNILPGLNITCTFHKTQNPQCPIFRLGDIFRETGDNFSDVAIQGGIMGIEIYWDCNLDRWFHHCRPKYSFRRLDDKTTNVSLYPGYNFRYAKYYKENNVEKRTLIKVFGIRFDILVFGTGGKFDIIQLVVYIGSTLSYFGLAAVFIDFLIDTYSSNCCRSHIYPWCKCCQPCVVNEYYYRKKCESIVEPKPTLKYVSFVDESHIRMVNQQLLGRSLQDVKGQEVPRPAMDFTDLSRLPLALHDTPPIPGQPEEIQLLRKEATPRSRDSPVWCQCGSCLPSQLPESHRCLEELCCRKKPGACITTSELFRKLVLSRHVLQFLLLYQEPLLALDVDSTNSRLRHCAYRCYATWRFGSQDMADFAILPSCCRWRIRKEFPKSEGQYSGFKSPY
Assay: P2X7 FLIPR assay (BzATP-stimulated calcium fluorescence, antagonist IC50)
Type: cell-based
Give the quantity in nM, number only.

O=C(NCC(c1cnc(C(F)(F)F)nc1)C1CCOCC1)c1ccccc1Cl (single isomer, unassigned; (+)) [(+)2-chloro-N-[2-tetrahydropyran-4-yl-2-[2-(trifluoromethyl)]
51
COc1ccc(C2(CNC(=O)c3cccc(Cl)c3Cl)CCCC2)cc1
260
CC(C)(O)c1ccc(C2(CNC(=O)c3ccccc3Cl)CCC(F)(F)CC2)cn1
380

What does the data say about its IC50? Entry: O=C(NCC1(c2ccc(F)nc2)CCC(F)(F)CC1)c1cc(C(F)(F)F)ccc1Cl
1.2

Same read-out for Cc1ncc(C(CNC(=O)c2c(Cl)cccc2Cl)CC2CC2)cn1 (single isomer, unassigned; (+)) [(+)2,6-dichloro-N-[3-cyclopropyl-2-(2-methylpyrimidin-5-yl)p] ?
220

Same read-out for O=C(NCC(c1cnc(C(F)(F)F)nc1)C1CCOCC1)c1ccccc1Cl (single isomer, unassigned; (-)) [(−)2-chloro-N-[2-tetrahydropyran-4-yl-2-[2-(trifluoromethyl)] ?
56

---

Target: UniProt Q99572
Assay: P2X7 FLIPR assay (BzATP-stimulated calcium fluorescence, antagonist IC50)
Type: cell-based
Method: This example illustrates representative assays for use in evaluating the test compounds for antagonist activity. Compounds of the present invention were tested in vitro for their ability to act as antagonists to the P2X7receptor. […] Cells were plated to cell density of approximately 15,000 cells/well in 384-well assay plates (50 μl/well) with 1.5% low serum media (DMEM, 1.5% FBS, 1% L-glut (2 mM), 10 mM HUES, 1% P/S). Cells were plated 24 hours prior to assay. […]
Metric: IC50

Some molecules with known IC50 results, for comparison:
O=C(NCC1(c2ccc(F)nc2)CCC(F)(F)CC1)c1cccc(Cl)c1Cl
0.28 nM
O=C(NCC1(c2cnc(C(F)(F)F)nc2)CCC(F)(F)CC1)c1cccc(Cl)c1Cl
0.95 nM
Cc1ccc(Cl)c(C(=O)NCC2(c3ccc(C)nc3)CCOCC2)c1
3400 nM

// moving on: another record for IC50
What does the data say about its IC50? Entry: CC(CNC(=O)c1ccccc1Cl)(CC1CC1)c1cnc(C(F)(F)F)nc1 (stereo not shown) [2-chloro-N-[3-cyclopropyl-2-methyl-2-[2-(trifluoromethyl)pyr]
21 nM

---

Biological target: UniProt Q99572
Experiment: P2X7 FLIPR assay (BzATP-stimulated calcium fluorescence, antagonist IC50)
Format: cell-based
Please respond with 1 (yes) when measured IC50 is strictly beneath 7 nM, and with 0 (no) in all other cases.

Examples from the recorded data:
O=C(NCC(CC1CC1)c1ccc(C(F)(F)F)nc1)c1ccc(F)cc1Cl (stereo not shown)
0 (no)
O=C(NCC(CC1CC1)c1ccc(C(F)(F)F)nc1)c1ccccc1Cl (stereo not shown)
1 (yes)
O=C(NCC(CC1CC1)c1cnc(C(F)(F)F)nc1)c1c(Cl)cccc1Cl (stereo not shown) [2,6-dichloro-N-(3-cyclopropyl-2-(2-(trifluoromethyl)pyrimidi]
1 (yes)

Strictly below 7 nM in IC50? O=C(NCC(c1ccccc1)c1ccnnc1)c1ccc(Cl)cc1Cl (stereo not shown)
0 (no)

Same read-out for COCCC(CNC(=O)c1cccc(Cl)c1Cl)c1cnc(C(F)(F)F)nc1 (stereo not shown) ?
0 (no)

Same read-out for O=C(NCC(CC1CC1)c1cnc(C(F)(F)F)nc1)c1c(F)cccc1Cl (single isomer, unassigned; (+)) [(+)2-chloro-N-[3-cyclopropyl-2-[2-(trifluoromethyl)pyrimidin] ?
0 (no)

---

Target: P2X7 receptor (Homo sapiens (Human), UniProt Q99572)
Assay: P2X7 FLIPR assay (BzATP-stimulated calcium fluorescence, antagonist IC50)
Format: cell-based
Listed below: IC50 values for each entry.
Give the quantity in nM, number only.

O=C(NCC(CC1CC1)c1ccc(C(F)(F)F)nc1)c1c(Cl)cccc1Cl (single isomer, unassigned; (+)) [(+)2,6-dichloro-N-[3-cyclopropyl-2-[6-(trifluoromethyl)-3-py]
0.89
O=C(NCC1(c2cccnc2)CCCC1)c1cccc(Cl)c1Cl
2200
O=C(NCC(c1ccncc1)c1cnc(C(F)(F)F)nc1)c1cccc(Cl)c1Cl (centres unmarked)
6.2
O=C(NCC1(c2ccc(F)nc2)CCC(F)(F)CC1)c1c(F)cccc1Cl
14
O=C(NCC(c1ccc(F)cc1)c1ccc(C(F)(F)F)nc1)c1c(F)cccc1Cl (single isomer, unassigned; (-)) [(−)2-chloro-6-fluoro-N-[2-(4-fluorophenyl)-2-[6-(trifluorome]
8.5
O=C(NCC1(c2cnc(C(F)(F)F)nc2)CCOCC1)c1cccc(Cl)c1Cl
250
Cc1ccc(C(F)(F)F)cc1C(=O)NCC1(c2ccc(C(F)(F)F)nc2)CCC(F)(F)CC1
39
O=C(NCC(c1ccc(F)cc1)c1cnc(C(F)(F)F)nc1)c1cccc(F)c1Cl (single isomer, unassigned; (-)) [(−)2-chloro-3-fluoro-N-[2-(4-fluorophenyl)-2-[2-(trifluorome]
1.8

What does the data say about its IC50? Entry: O=C(NCC1(c2ccc(Cl)cc2)CCOCC1)c1cccc(Cl)c1Cl
43

Same read-out for COc1cccc(C(=O)NCC(CC2CC2)c2cnc(C(F)(F)F)nc2)c1Cl (single isomer, unassigned; (+)) [(+)2-chloro-N-[3-cyclopropyl-2-[2-(trifluoromethyl)pyrimidin] ?
14

Same read-out for O=C(NCC1(c2cncc(F)c2)CCC(F)(F)CC1)c1cccc(Cl)c1Cl ?
1.2

---

Biological target: P2X7 receptor (Homo sapiens (Human), UniProt Q99572)
Assay: P2X7 FLIPR assay (BzATP-stimulated calcium fluorescence, antagonist IC50)
Format: cell-based
Listed below: IC50 values for each entry.
Give the quantity in nM, number only.

O=C(NCC(CC1(C(F)(F)F)CC1)c1ccc(C(F)(F)F)nc1)c1ccccc1Cl (single isomer, unassigned; (+)) [(+)2-chloro-N-[3-[1-(trifluoromethyl)cyclopropyl]-2-[6-(trif]
0.09
CC(CNC(=O)c1ccccc1Cl)(CC1CC1)c1cnc(C(F)(F)F)nc1 (single isomer, unassigned; (-)) [(−)2-chloro-N-[3-cyclopropyl-2-methyl-2-[2-(trifluoromethyl)]
17
O=C(NCC(CC1(C(F)(F)F)CC1)c1ccc(C(F)(F)F)nc1)c1ccccc1Cl (centres unmarked) [2-chloro-N-[3-[1-(trifluoromethyl)cyclopropyl]-2-[6-(trifluo]
2.1
O=C(NCC(CC1CC1)c1cnc(C(F)(F)F)nc1)c1cccc(Cl)c1Cl (single isomer, unassigned; (+)) [(+)2,3-dichloro-N-[3-cyclopropyl-2-[2-(trifluoromethyl)pyrim]
3.9
O=C(NCC(CC1CC1)c1ccc(C(F)(F)F)nc1)c1cccc(C(F)(F)F)c1Cl (single isomer, unassigned; (+)) [(+)2-chloro-N-[3-cyclopropyl-2-[6-(trifluoromethyl)-3-pyridy]
1100

What does the data say about its IC50? Entry: Cc1ncc(C(CNC(=O)c2ccccc2Cl)CC2CC2)cn1 (centres unmarked)
1200

Same read-out for Cc1ncc(C(CNC(=O)c2cccc(Cl)c2Cl)C2CCOCC2)cn1 (single isomer, unassigned; (+)) [(+)2,3-dichloro-N-[2-(2-methylpyrimidin-5-yl)-2-tetrahydropy] ?
28

Same read-out for O=C(NCC(CC1CC1)c1ccc(C(F)F)nc1)c1ccccc1Cl (single isomer, unassigned; (+)) [(+)2-chloro-N-[3-cyclopropyl-2-[6-(difluoromethyl)-3-pyridyl] ?
640

Same read-out for COc1ccc(F)c(C(=O)NCC2(c3ccc(F)nc3)CCC(F)(F)CC2)c1 ?
65

Same read-out for O=C(NCC(CC1CC1)c1ccc(C(F)(F)F)nc1)c1c(F)cccc1F (single isomer, unassigned; (+)) [(+)N-[3-cyclopropyl-2-[6-(trifluoromethyl)-3-pyridyl]propyl]] ?
740

Same read-out for COc1ccc(C2(CNC(=O)c3cccc(C)c3C)CCCC2)cc1 ?
600

---

Biological target: P2X7 receptor (Homo sapiens (Human), UniProt Q99572)
Assay: P2X7 FLIPR assay (BzATP-stimulated calcium fluorescence, antagonist IC50)
Type: cell-based
Details: listed as (+)2-chloro-N-[3-cyclopropyl-2-[6-(trifluoromethyl)-3-pyridyl]propyl]benzamide
Metric: IC50 (nM)
Give the quantity in nM, number only.

What does the data say about its IC50? Entry: O=C(NCC(CC1CC1)c1ccc(C(F)(F)F)nc1)c1ccccc1Cl (single isomer, unassigned; (+))
63

---

Molecular target: UniProt Q99572
Assay: P2X7 FLIPR assay (BzATP-stimulated calcium fluorescence, antagonist IC50)
Type: cell-based
Metric: pIC50
Answer as the number alone; pIC50 is minus log10 of concentration in mol/L.

O=C(NCC(c1ccc(F)cc1)c1ccc(C(F)(F)F)nc1)c1ccccc1Cl (single isomer, unassigned; (+)) [(+)2-chloro-N-[2-(4-fluorophenyl)-2-[6-(trifluoromethyl)-3-p]
8.66
O=C(NCC(c1ccc(F)cc1)c1cnc(C(F)(F)F)nc1)c1cccc(Cl)c1Cl (single isomer, unassigned; (+)) [(+)2,3-dichloro-N-[2-(4-fluorophenyl)-2-[2-(trifluoromethyl)]
8.96
COc1ccccc1C(=O)NCC1(c2ccc(Cl)cc2)CCOCC1
6.21
Cc1ccccc1C(=O)NCC1(c2ccc(Cl)cc2)CCOCC1
5.68
O=C(NCC(c1ccc(F)cc1)c1cnc(C(F)(F)F)nc1)c1cccc(F)c1Cl (single isomer, unassigned; (+)) [(+)2-chloro-3-fluoro-N-[2-(4-fluorophenyl)-2-[2-(trifluorome]
8.32
O=C(NCC(CC1CC1)c1ccc(C(F)F)nc1)c1cccc(F)c1Cl (single isomer, unassigned; (-)) [(−)2-chloro-N-[3-cyclopropyl-2-[6-(difluoromethyl)-3-pyridyl]
7.72
Cc1ccc(C(CNC(=O)c2cccc(C)c2C)CC(C)C)cn1 (centres unmarked)
8.36
CS(=O)(=O)c1ccc(C(=O)NCC2(c3ccc(C(F)(F)F)nc3)CCC(F)(F)CC2)c(Cl)c1
5.74
Cc1ncc(C(CNC(=O)c2ccccc2Cl)CC2(C(F)(F)F)CC2)cn1 (single isomer, unassigned; (+)) [(+)2-chloro-N-[2-(2-methylpyrimidin-5-yl)-3-[1-(trifluoromet]
6.89
Cc1ncc(C(CNC(=O)c2cccc(Cl)c2Cl)CC2(C(F)(F)F)CC2)cn1 (single isomer, unassigned; (+)) [(+)2,3-dichloro-N-[2-(2-methylpyrimidin-5-yl)-3-[1-(trifluor]
8.82

What does the data say about its pIC50? Entry: O=C(NCC(CC1CC1)c1ccc(C(F)(F)F)nc1)c1cccc(Cl)c1Cl (single isomer, unassigned; (+)) [(+)2,3-dichloro-N-[3-cyclopropyl-2-[6-(trifluoromethyl)-3-py]
8.59

Same read-out for Cc1ncc(C(CNC(=O)c2c(Cl)cccc2Cl)CC2CC2)cn1 (single isomer, unassigned; (-)) [(−)2,6-dichloro-N-[3-cyclopropyl-2-(2-methylpyrimidin-5-yl)p] ?
8.00

Same read-out for O=C(NCC(CC1(C(F)(F)F)CC1)c1cnc(C(F)(F)F)nc1)c1cccc(Cl)c1Cl (single isomer, unassigned; (-)) [(−)2,3-dichloro-N-[3-[1-(trifluoromethyl)cyclopropyl]-2-[2-(] ?
7.68

Same read-out for O=C(NCC1(c2ccc(F)nc2)CCC(F)(F)CC1)c1cc(F)ccc1F ?
5.82

Same read-out for O=C(NCC(CC1(C(F)(F)F)CC1)c1ccc(C(F)(F)F)nc1)c1cccc(Cl)c1Cl (single isomer, unassigned; (+)) [(+)2,3-dichloro-N-[3-[1-(trifluoromethyl)cyclopropyl]-2-[6-(] ?
7.92

Same read-out for O=C(NCC1(c2ccc(C(F)(F)F)nc2)CCC(F)(F)CC1)c1cccc(Cl)c1Cl ?
8.92

Same read-out for Cc1ncc(C(CNC(=O)c2cccc(Cl)c2Cl)CC2(C(F)(F)F)CC2)cn1 (single isomer, unassigned; (-)) [(−)2,3-dichloro-N-[2-(2-methylpyrimidin-5-yl)-3-[1-(trifluor] ?
7.19
